# TARGET_ENTITY: Bile salt export pump (Homo sapiens); further: assay procedure not described here
# Sequence (O95342 whole entry): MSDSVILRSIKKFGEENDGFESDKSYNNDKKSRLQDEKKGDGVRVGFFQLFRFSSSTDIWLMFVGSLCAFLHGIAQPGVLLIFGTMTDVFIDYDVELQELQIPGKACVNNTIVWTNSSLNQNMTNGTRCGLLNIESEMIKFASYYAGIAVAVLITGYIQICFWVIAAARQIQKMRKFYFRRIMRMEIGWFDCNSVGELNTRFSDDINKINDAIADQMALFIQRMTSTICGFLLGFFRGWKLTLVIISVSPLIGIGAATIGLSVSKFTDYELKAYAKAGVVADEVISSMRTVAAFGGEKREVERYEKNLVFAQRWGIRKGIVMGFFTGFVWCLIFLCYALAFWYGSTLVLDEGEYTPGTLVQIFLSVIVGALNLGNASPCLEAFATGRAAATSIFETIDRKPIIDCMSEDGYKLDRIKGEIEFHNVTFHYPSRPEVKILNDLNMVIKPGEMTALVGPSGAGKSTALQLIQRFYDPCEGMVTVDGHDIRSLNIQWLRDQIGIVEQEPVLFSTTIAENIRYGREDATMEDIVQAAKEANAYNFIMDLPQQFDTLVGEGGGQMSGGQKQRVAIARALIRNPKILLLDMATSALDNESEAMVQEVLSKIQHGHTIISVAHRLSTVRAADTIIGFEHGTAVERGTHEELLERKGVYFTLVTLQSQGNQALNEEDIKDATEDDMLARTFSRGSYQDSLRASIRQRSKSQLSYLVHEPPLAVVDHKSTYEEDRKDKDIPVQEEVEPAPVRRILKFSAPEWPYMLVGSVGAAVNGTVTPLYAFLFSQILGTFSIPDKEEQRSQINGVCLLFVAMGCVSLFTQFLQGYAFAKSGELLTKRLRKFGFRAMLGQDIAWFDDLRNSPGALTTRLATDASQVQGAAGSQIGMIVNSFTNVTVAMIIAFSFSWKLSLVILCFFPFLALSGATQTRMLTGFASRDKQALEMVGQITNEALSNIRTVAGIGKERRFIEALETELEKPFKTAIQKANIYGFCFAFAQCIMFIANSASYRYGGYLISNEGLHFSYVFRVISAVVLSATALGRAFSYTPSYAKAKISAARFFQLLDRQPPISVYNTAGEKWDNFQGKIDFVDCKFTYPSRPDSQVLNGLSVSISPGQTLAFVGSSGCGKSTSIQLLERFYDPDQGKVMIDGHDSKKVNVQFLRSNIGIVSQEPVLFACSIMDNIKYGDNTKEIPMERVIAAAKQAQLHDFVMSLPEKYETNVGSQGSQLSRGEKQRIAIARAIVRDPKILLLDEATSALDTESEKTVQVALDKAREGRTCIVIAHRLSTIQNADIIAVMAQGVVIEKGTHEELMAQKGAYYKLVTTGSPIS
# Type: functional
// NB: equality with 50 µM counts as n; only AC50 strictly below is y

[
  {
    "COMPOUND": "Nc1nc(O)c2ncn(COC(CO)CO)c2n1 [GANCICLOVIR]",
    "GROUP_LABEL": "n"
  },
  {
    "COMPOUND": "O=C(O)COc1nn(Cc2ccccc2)c2ccccc12 [BENDAZAC]",
    "GROUP_LABEL": "n"
  },
  {
    "COMPOUND": "CC(=N)N1CC[C@H](SC2=C(C(=O)O)N3C(=O)[C@H]([C@@H](C)O)[C@H]3C2)C1",
    "GROUP_LABEL": "n"
  },
  {
    "COMPOUND": "CC(C)COc1ccc(CNC(=O)N(Cc2ccc(F)cc2)C2CCN(C)CC2)cc1 [PIMAVANSERIN]",
    "GROUP_LABEL": "n"
  },
  {
    "COMPOUND": "C#Cc1cccc(Nc2ncnc3cc(OCCOC)c(OCCOC)cc23)c1 [ERLOTINIB]",
    "GROUP_LABEL": "y"
  },
  {
    "COMPOUND": "CO/N=C(\\C(=O)N[C@@H]1C(=O)N2C(C(=O)O)=C(COC(N)=O)CS[C@H]12)c1ccco1 [CEFUROXIME]",
    "GROUP_LABEL": "n"
  },
  {
    "COMPOUND": "CCc1oc2ccccc2c1C(=O)c1cc(Br)c(O)c(Br)c1 [BENZBROMARONE]",
    "GROUP_LABEL": "y"
  },
  {
    "COMPOUND": "CNCC[C@H](Oc1cccc2ccccc12)c1cccs1 [DULOXETINE]",
    "GROUP_LABEL": "n"
  },
  {
    "COMPOUND": "CNCC[C@@H](Oc1ccccc1C)c1ccccc1 [ATOMOXETINE]",
    "GROUP_LABEL": "n"
  },
  {
    "COMPOUND": "O=C(Nc1c(Cl)cncc1Cl)c1ccc(OC(F)F)c(OCC2CC2)c1 [ROFLUMILAST]",
    "GROUP_LABEL": "y"
  },
  {
    "COMPOUND": "CC(C)[N+](C)(CCOC(=O)C1c2ccccc2Oc2ccccc21)C(C)C [PROPANTHELINE]",
    "GROUP_LABEL": "n"
  },
  {
    "COMPOUND": "CC(=O)/N=c1/sc(S(N)(=O)=O)nn1C [METHAZOLAMIDE]",
    "GROUP_LABEL": "n"
  },
  {
    "COMPOUND": "C=C(C)[C@@H]1CCC(C)=C[C@H]1c1c(O)cc(CCCCC)cc1O [CANNABIDIOL]",
    "GROUP_LABEL": "n"
  },
  {
    "COMPOUND": "CC(C)C[C@H](CN)CC(=O)O [PREGABALIN]",
    "GROUP_LABEL": "n"
  },
  {
    "COMPOUND": "Cc1cnc(NC(=O)C2=C(O)c3ccccc3S(=O)(=O)N2C)s1 [MELOXICAM]",
    "GROUP_LABEL": "n"
  },
  {
    "COMPOUND": "Cn1c(=O)c2[nH]cnc2n(C)c1=O [THEOPHYLLINE]",
    "GROUP_LABEL": "n"
  },
  {
    "COMPOUND": "CC1(C)O[C@@H]2C[C@H]3[C@@H]4C[C@H](F)C5=CC(=O)C=C[C@]5(C)[C@H]4[C@@H](O)C[C@]3(C)[C@]2(C(=O)CO)O1 [FLUNISOLIDE]",
    "GROUP_LABEL": "n"
  },
  {
    "COMPOUND": "CC1(C)S[C@@H]2[C@H](NC(=O)[C@H](N)c3ccc(O)cc3)C(=O)N2[C@H]1C(=O)O [AMOXICILLIN]",
    "GROUP_LABEL": "n"
  },
  {
    "COMPOUND": "CC(=O)Oc1ccccc1C(=O)Nc1ncc([N+](=O)[O-])s1 [NITAZOXANIDE]",
    "GROUP_LABEL": "y"
  }
]
